system: HOP-92 NSCLC; test: NCI-60 one-dose screen, 48 h (100 = growth as untreated, 0 = no growth, -100 = all killed); conditions: 10 µM unless noted
Compounds without any hit were thinned out: in the full panel of roughly 83,000, 20% have a hit.
For each record, write down the corresponding growth.
# number only, unit % dropped from output

// query growth value for entry CCCCCCCCCCCCN1C(C)=CS/C1=C\C=C\c1scc(C)[n+]1CCCCCCCCCCCC
36.8

// query growth value for entry CC(=O)C1Cc2ccccc2C1=O (stereo not drawn)
105

// query growth value for entry COc1cc(/C=C2\SC(=S)N(/C=C/c3nc4ccccc4[nH]c3=O)C2=O)cc(OC)c1OC
53.3

// query growth value for entry CCCCC(CCc1ccc([N+](=O)[O-])cc1)(C(C)=O)C(=O)OCC (stereo not drawn)
91.5

// query growth value for entry Cc1cc(I)nc2ccccc12
93.5

// query growth value for entry O=C(/C=C/C(Cl)(Cl)Cl)Nc1ccc(Cl)cc1
82.1

// query growth value for entry CCN1CCCC(Nc2cc(C)nc(/N=C(/N)Nc3ccc(Cl)c(Cl)c3)n2)C1 (stereo not drawn)
-68.4

// query growth value for entry CCCCCCCCCCCC[n+]1ccccc1 (tested in a mixture with another compound)
-50.8

// query growth value for entry O=C(NNc1ccccc1)OCc1ccccc1
82

// query growth value for entry COC(=O)C(=[N+]=[N-])C(=O)c1ccc([N+](=O)[O-])o1
83.1

// query growth value for entry Cc1cc(N/N=C/c2ccccn2)nc2ccccc12
-2.87

// query growth value for entry O=C(c1ccccc1)c1ccc(O)c2ncccc12
49.6

// query growth value for entry c1ccc(-c2cc3cc4ccccc4cn3c2)cc1
76.5

// query growth value for entry CCCc1cc(=O)oc2c3c(c4c(c12)OC(C)(C)CC4)OC(C)[C@H](C)[C@@H]3O (stereo partly drawn)
-1.36

// query growth value for entry COc1ccc2nc3cc(Cl)ccc3c(NCCCCCN3CCCCC3)c2c1
-56.4

// query growth value for entry COc1ccc2c(c1)c(CC(=O)O)c(C)n2C(=O)c1ccc(Cl)cc1
82.8

// query growth value for entry CCSc1nc2ccccc2o1
81.8

// query growth value for entry Cc1ccccc1NC(=O)Cc1csc2[n+]1C(=O)/C(=C/c1ccc([N+](=O)[O-])cc1)S2
79.5

// query growth value for entry Cn1c(-c2ccccc2)c(/C=C/C2=[N+](C)c3ccccc3C2(C)C)c2ccccc21
-17.1

// query growth value for entry CC1=CC(=NC(=O)CBr)C=C/C1=N\S(=O)(=O)c1ccccc1
52.9

// query growth value for entry O=C(CCl)N1c2ccccc2Sc2c1ccc1ccccc21
64.6

// query growth value for entry CN1CSC(=S)N(Cc2ccccc2)C1
69.4

// query growth value for entry CC(C)(C)CC(C)(C)c1ccc(OCCOCCSC(=N)N)cc1
37

// query growth value for entry Oc1c(C(Nc2ccccc2)c2ccccc2)ccc2cccnc12 (stereo not drawn)
19.9

// query growth value for entry CCCCCCCCCCCCCCCC[N+]1(C)CCCC1c1cccnc1 (stereo not drawn)
5.98

// query growth value for entry CCCCCCCCCCCCSC(=N)N
-22.4

// query growth value for entry Cc1cc2nc(CC(=O)c3ccncc3)c(=O)[nH]c2cc1C
92.8

// query growth value for entry CC(CSc1n[nH]c(=S)s1)c1ccccc1 (stereo not drawn)
101

// query growth value for entry Cc1cccc2c(N)c3ccccc3nc12
-20.4

// query growth value for entry O=C(c1ccccc1)c1cc2ccccc2oc1=O
51.3

// query growth value for entry CCCCCCN(CCCCCC)CCCNc1nccc2ccccc12
-14.6

// query growth value for entry O=C1C=CC(=O)N1c1cc(Cl)c(Cl)cc1Cl
107

// query growth value for entry O=C(Cc1nc2cc(Cl)c(Cl)cc2nc1CC(=O)c1cccnc1)c1cccnc1
78

// query growth value for entry CC/C(=C(/CC)c1ccc(O)cc1)c1ccc(O)cc1
58.1

// query growth value for entry CCCCCCCCCCCCCCCCSC(=NCC)NCC
-21.3

// query growth value for entry CCC[CH2][Sn]1([CH2]CCC)[O]C2C(CO)OC(n3ccc(N)nc3=O)C2[O]1 (stereo not drawn)
-56.3

// query growth value for entry O=C(O)c1ccc2c(c1)C(=O)c1ccccc1C2=O
93.9

// query growth value for entry NC(=S)Nc1ccc2c(c1)Cc1ccccc1-2
63.9

// query growth value for entry COc1ccc(/C=C2/C(=O)ON=C2C)cc1
93.6

// query growth value for entry Cc1cc(Br)c2nsnc2c1[N+](=O)[O-]
62.5

// query growth value for entry O=[N+]([O-])c1ccc(N2CCN(Cc3ccccc3)CC2)c2c1no[n+]2[O-]
25.6

// query growth value for entry CC(C)c1ccc(C(=O)OC2CCCC2)cc1
80.2

// query growth value for entry NNc1ccc(Cl)cc1Cl
55.2

###

system: BT-549 breast; experiment: NCI-60 one-dose screen, 48 h (100 = growth as untreated, 0 = no growth, -100 = all killed); details: 10 µM unless noted
The panel holds about 83,000 compounds, 20% with a hit somewhere; the sample as a whole holds those more often.
endpoint-label: growth (%)
# number only, unit % dropped from output

// query growth value for entry COC1=CC(=O)c2c(O)c3c(c(O)c2C1=O)CC(C)(O)OC3 (stereo unspecified)
28.1

// query growth value for entry Cc1cc(=O)oc2cc(O)cc(O)c12
101

// query growth value for entry OC(Cc1cc(CC(O)(C(F)(F)F)C(F)(F)F)nc(CC(O)(C(F)(F)F)C(F)(F)F)c1)(C(F)(F)F)C(F)(F)F
11.3

// query growth value for entry O=[N+]([O-])/C(=C/c1ccccc1)c1ccccc1
93

// query growth value for entry Nc1nc(-c2ccccc2)nc(N)c1N=O
56.3

// query growth value for entry CN=C(N)N/N=C(\c1ccccc1)c1ccc(Br)cc1
21.5

// query growth value for entry CCCCC(C=O)(C=C=C(C)C)CC (stereo unspecified)
103

// query growth value for entry COC(=O)c1ccc(=O)c2nc3/c(=C/O)c(O)cc(=O)c3[nH]c12
5.85

// query growth value for entry Oc1ccc(Cl)cc1Cc1cc(Cl)ccc1O
37.1

// query growth value for entry CCCCCCCCCCCC[S+](C)CC(=O)[O-] (stereo unspecified)
-29.2

// query growth value for entry Oc1ccc(Cl)cc1C(c1cc(Cl)ccc1O)C(Cl)(Cl)Cl
44.9

// query growth value for entry Cc1cc2nc(CC(=O)c3ccncc3)c(=O)[nH]c2cc1C
88.9

// query growth value for entry O=C(c1ccccc1)C(O)C(Br)(CBr)c1ccccc1 (stereo unspecified)
68.4

// query growth value for entry c1ccc(C2NCCNC2c2ccccc2)cc1 (stereo unspecified)
103

// query growth value for entry CN(C)c1ccc2cc3c(cc2c1)Oc1ccccc1N3.[Cl][Zn][Cl]
105

// query growth value for entry O=C(NNc1ccccc1)OCc1ccccc1
83.1

// query growth value for entry COc1cc(/C=C/C(=O)CC(=O)/C=C/c2ccc(O)c(OC)c2)ccc1O
13.9

// query growth value for entry NC(=S)N/N=C/c1ncccc1O
35.4

// query growth value for entry CC1C(c2ccccc2)OCCN1C(=S)Nc1ccc(S(=O)(=O)N2CCCCC2)cc1 (stereo unspecified)
97.6

// query growth value for entry CC(=O)Nc1ccc(C(=O)CCl)cc1
58.6

// query growth value for entry CN(C)CCSC1=Nc2ccc(Cl)cc2C(c2ccccc2Cl)N(C)C1 (stereo unspecified)
76.4

###

test system: NCI-H23 lung; assay: NCI-60 one-dose screen, 48 h; details: 10 µM unless noted
The panel holds about 83,000 compounds, 20% with a hit somewhere; the sample as a whole holds those more often. Calls of active or inactive are those of the source. Rule for the calls: active = growth percent below 10; inactive = the rest. Where a SMILES comes first, the peptide text is derived from it. [ ]: non-standard residue; d: D form. ξ: configuration not given here. ξD = NC(CC(=O)O)C(=O)O
Pick one and only one: active, inactive

Dear colleague, could you share the recorded outcome for C/C=C/c1cc2c(c(=O)o1)C(=O)[C@@H](O)[C@H](C)O2 when you have a moment?
inactive

Dear colleague, could you share the recorded outcome for CC1=CC(=NC(=O)CBr)C=C/C1=N\S(=O)(=O)c1ccccc1 when you have a moment?
inactive

Dear colleague, could you share the recorded outcome for O=C(Nc1ccc(Cl)c(Cl)c1)Nc1ccccc1O when you have a moment?
inactive

Dear colleague, could you share the recorded outcome for COc1ccc2c(c1)c(CC(=O)O)c(C)n2C(=O)c1ccc(Cl)cc1 when you have a moment?
inactive

Dear colleague, could you share the recorded outcome for NCC(=O)NC(CC(=O)O)C(=O)O (centres undefined) (H-Gly-[ξD]-OH) when you have a moment?
inactive

Dear colleague, could you share the recorded outcome for Cc1cc(Br)c2nsnc2c1[N+](=O)[O-] when you have a moment?
active

Dear colleague, could you share the recorded outcome for COc1ccc(C(OCC2OC(n3ccc(NC(=O)c4ccccc4)nc3=O)C(O)C2O)(c2ccccc2)c2ccccc2)cc1 (centres undefined) when you have a moment?
inactive

Dear colleague, could you share the recorded outcome for CCCOC(=O)c1nc(N(CC2CCCCC2)C(=O)NC)sc1/N=C/c1ccccc1 when you have a moment?
inactive

Dear colleague, could you share the recorded outcome for Cc1cc(C(=O)c2ccc(Cl)cc2)ccc1O when you have a moment?
inactive

Dear colleague, could you share the recorded outcome for Cc1cc2nc(CC(=O)c3ccncc3)c(=O)[nH]c2cc1C when you have a moment?
inactive

Dear colleague, could you share the recorded outcome for O=C(NOC(=O)c1ccccc1)c1ccccc1 when you have a moment?
inactive

Dear colleague, could you share the recorded outcome for CC1(O)CCCCCC1 when you have a moment?
inactive

Dear colleague, could you share the recorded outcome for S=C(SSC(=S)N1CCOCC1)N1CCOCC1 when you have a moment?
inactive

Dear colleague, could you share the recorded outcome for Cc1cccc2c(N)c3ccccc3nc12 when you have a moment?
active

Dear colleague, could you share the recorded outcome for O=C1/C(=C/c2ccccn2)CCc2ccccc21 when you have a moment?
inactive

Dear colleague, could you share the recorded outcome for CC(C)(C)c1ccc(O)c(-c2ccccc2)c1 when you have a moment?
inactive

Dear colleague, could you share the recorded outcome for O=C1/C(=C\c2ccc([N+](=O)[O-])cc2)CS(=O)(=O)C/C1=C/c1ccc([N+](=O)[O-])cc1 when you have a moment?
active

Dear colleague, could you share the recorded outcome for COC(=O)C(=[N+]=[N-])C(=O)c1ccc([N+](=O)[O-])o1 when you have a moment?
inactive

Dear colleague, could you share the recorded outcome for CN=C(N)N/N=C(\c1ccccc1)c1ccc(Br)cc1 when you have a moment?
inactive
